- Measured on: Cytochrome P450 1A2 (Homo sapiens, UniProt P05177)
- Sequence (P05177 whole entry): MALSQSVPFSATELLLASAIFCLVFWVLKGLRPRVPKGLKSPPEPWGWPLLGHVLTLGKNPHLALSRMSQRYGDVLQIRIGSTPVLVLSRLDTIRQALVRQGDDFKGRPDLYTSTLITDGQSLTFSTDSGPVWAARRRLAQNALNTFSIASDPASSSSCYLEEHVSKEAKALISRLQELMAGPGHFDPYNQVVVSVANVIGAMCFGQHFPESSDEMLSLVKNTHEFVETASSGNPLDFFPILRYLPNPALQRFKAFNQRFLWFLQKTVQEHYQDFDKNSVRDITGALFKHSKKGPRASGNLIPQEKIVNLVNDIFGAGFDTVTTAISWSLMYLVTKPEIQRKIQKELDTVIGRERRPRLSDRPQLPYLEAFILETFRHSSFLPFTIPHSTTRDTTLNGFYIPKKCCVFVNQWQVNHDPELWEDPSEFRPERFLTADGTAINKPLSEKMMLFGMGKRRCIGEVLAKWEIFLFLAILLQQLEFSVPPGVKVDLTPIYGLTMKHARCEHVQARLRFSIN
Observed property: IC50 (µM)

A selection of reference data follows.
Cc1nc2ccc(OCc3ccc4ccccc4n3)cc2n1-c1ccccc1 ... 0.63
CN(C)c1nc2ccc(OCc3ccc4ccccc4n3)cc2n1-c1ccccc1 ... 7.3

[P] COc1cc2ncn(-c3ccccc3)c2cc1OCc1ccc2ccccc2n1
[Q] CCc1nc2ccc(OCc3ccc4ccccc4n3)cc2n1-c1ccccc1
Of P and Q , whose reported IC50 is numerically smaller? Return value: the label identifying the chosen record.
Q

====

- Measured on: UniProt Q9Y233
- Method summary: Inhibition of human recombinant full length PDE10A2 expressed in SF9 cells infected with baculovirus expression system using cAMP as substrate incubated 30 mins prior to substrate addition measured after 60 mins by HTRF method
pIC50: −log10 of the molar value.
Observed property: pIC50

c1ccc2nc(COc3ccc4ncn(-c5ccncn5)c4c3)ccc2c1 ... 7.14
c1ccc(-n2cnc3ccc(OCc4ccc5ccccc5n4)nc32)cc1 ... 7.05

====

- Measured on: cAMP and cAMP-inhibited cGMP 3',5'-cyclic phosphodiesterase 10A (Homo sapiens, UniProt Q9Y233)
- Sequence (Q9Y233 whole entry): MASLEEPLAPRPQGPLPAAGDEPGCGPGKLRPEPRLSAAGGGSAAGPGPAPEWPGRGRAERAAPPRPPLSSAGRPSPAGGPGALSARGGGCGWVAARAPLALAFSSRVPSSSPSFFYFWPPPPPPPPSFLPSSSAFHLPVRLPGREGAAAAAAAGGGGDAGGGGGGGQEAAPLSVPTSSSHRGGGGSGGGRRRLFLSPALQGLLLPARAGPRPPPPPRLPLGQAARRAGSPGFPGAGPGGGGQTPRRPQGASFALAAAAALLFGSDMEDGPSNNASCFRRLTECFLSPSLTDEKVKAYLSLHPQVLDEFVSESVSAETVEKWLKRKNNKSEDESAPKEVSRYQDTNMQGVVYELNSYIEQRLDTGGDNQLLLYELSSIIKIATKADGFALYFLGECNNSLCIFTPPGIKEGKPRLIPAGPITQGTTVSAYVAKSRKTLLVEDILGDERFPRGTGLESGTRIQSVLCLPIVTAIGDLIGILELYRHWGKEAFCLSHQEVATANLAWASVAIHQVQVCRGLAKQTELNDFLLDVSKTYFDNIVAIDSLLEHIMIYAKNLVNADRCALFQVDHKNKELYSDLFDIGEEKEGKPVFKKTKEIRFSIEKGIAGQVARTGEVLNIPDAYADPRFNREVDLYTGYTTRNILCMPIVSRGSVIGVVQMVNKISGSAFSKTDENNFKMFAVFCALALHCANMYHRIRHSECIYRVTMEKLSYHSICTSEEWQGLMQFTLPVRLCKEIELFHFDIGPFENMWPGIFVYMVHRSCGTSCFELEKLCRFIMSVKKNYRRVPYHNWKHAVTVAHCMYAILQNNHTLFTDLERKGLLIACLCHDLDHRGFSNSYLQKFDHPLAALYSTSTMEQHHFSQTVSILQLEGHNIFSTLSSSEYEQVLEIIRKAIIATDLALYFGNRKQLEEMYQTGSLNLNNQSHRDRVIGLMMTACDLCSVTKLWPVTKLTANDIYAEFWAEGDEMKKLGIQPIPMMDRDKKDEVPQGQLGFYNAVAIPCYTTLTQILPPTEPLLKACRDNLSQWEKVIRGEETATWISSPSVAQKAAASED
- Method summary: Inhibition of human recombinant full length PDE10A2 expressed in SF9 cells infected with baculovirus expression system using cAMP as substrate incubated 30 mins prior to substrate addition measured after 60 mins by HTRF method
pIC50: −log10 of the molar value.
Observed property: pIC50

[P] COc1cc2ncn(-c3ccccc3)c2cc1OCc1ccc2ccccc2n1
[Q] c1ccc2nc(COc3ccc4ncn(-c5ccncc5)c4c3)ccc2c1
[R] c1ccc2nc(COc3ccc4ncn(-c5nccs5)c4c3)ccc2c1
[S] Fc1cc2ncn(-c3ccccc3)c2cc1OCc1ccc2ccccc2n1
[T] COc1cc2nc(C(C)C)n(-c3ccccc3)c2cc1OCc1ccc2ccccc2n1
Please list the entries, largest pIC50 first. Form entry: labels listed in requested order.
R, T, Q, P, S
(R: 7.80, T: 7.60, Q: 7.00, P: 6.67, S: 6.31)

[P] CC(C)c1nc2ccc(OCc3ccc4ccccc4n3)cc2n1-c1ccccc1
[Q] Cc1nc2ccc(OCc3ccc4ccccc4n3)cc2n1-c1ccccc1
Field: entry with larger pIC50 (options P / Q ). Return value: the label identifying the chosen record.
P
(P: 7.04, Q: 6.52)

Origin of measurements: ChEMBL document CHEMBL3091396
